- run description: qHTS Screen for Compounds that Selectively Target Cancer Cells with p53 Mutations: Cytotoxicity of p53ts Cells at the Nonpermissive Temperature; also: nearly all actives have a fitted effect of over 55% in size
- protocol conditions: H1299-p53A138V viability at 39C, ATP luminescence, 24 h; series mostly up to 46.1 µM
Among all 130,000 compounds or so, about 1,900 (1.5%) were called active. About 5% were inconclusive and are not listed. Calls follow the shape of the dose curve; as a rule, active = well fitted cell-killing curve with a large enough effect; inconclusive = small, poorly fitted or top-dose-only effect; inactive = no such curve, though single readings can be large or run the other way. The entries come from a sample that favours actives as a whole.
One label from this list, please: active, inactive

Take a look at these entries with their results.
compound: CCOC(=O)c1c(S(=O)(=O)N2CCCC(C(=O)NCc3ccc(F)cc3)C2)c(C)n(CC)c1C (stereo not given)
discrete label: inactive

compound: Cc1nn2c3cc(N4CCOCC4)ccc3nc2c2ccccc12
discrete label: active

compound: CCCOc1ccc(C2c3c(-c4ccccc4O)n[nH]c3C(=O)N2Cc2cccnc2)cc1 (stereo not given)
discrete label: active

compound: CCS(=O)(=O)c1ncc(N(Cc2ccc(F)cc2)Cc2ccco2)c(C(=O)Nc2cc(C)ccc2C)n1
discrete label: inactive

compound: COc1ccc(Nc2cc(C(=O)NCCCN(C)c3ccccc3)c3ccccc3n2)c(OC)c1
discrete label: inactive

compound: CC1CCN(S(=O)(=O)c2ccc3c(c2)N(CC(=O)NCCc2ccccc2)C(=O)CO3)CC1
discrete label: inactive

compound: COc1ccccc1Nc1cc(C(=O)NCCCN(C)C2CCCCC2)c2ccccc2n1
discrete label: active

compound: COc1ccc(C(=O)Nc2nonc2-c2ccc(OC)c(OC)c2)cc1Cl
discrete label: inactive

Request: I would be grateful if you could indicate the recorded call for O=C(CSc1nccn1Cc1ccc(F)cc1)NCc1ccccc1 .
Result: inactive

Request: Hey, what did the test say about O=C(O)Cc1ccc(NC(=O)c2cccs2)cc1 ?
Result: inactive

Request: I'd appreciate the recorded outcome for Cc1ccc(NC(=O)c2cccc(N(C)C)c2)cc1NC(=O)c1ccc(O)cc1 from this test.
Result: active

Request: Kindly provide the recorded test outcome for the following compound: COc1ccc(NC(=O)c2c(C)oc3c2CCCC3)cc1
Result: inactive

Request: Record request — test call for O=C(Cn1c(=O)sc2ccccc21)Nc1nc2c(s1)CCCC2
Result: inactive

Request: Answer briefly: the call reported for Cc1nc2ccccc2n1C(=O)N1CCOCC1 in this assay.
Result: inactive

Request: I would be grateful if you could indicate the recorded call for O=C(NC1CC(=O)N(c2ccccc2)C1)c1ccco1 (stereo not given) .
Result: inactive

Request: How was CC1CCc2noc(NC(=O)c3ccc([N+](=O)[O-])cc3)c2C1 (stereo not given) classified in this test?
Result: inactive

Request: What classification did COc1cccc(-c2n[nH]c3c2C(c2cccc(O)c2)N(C)C3=O)c1 (stereo not given) end up with in this test?
Result: inactive

Request: Kindly provide the recorded test outcome for the following compound: O=C(CC(c1cccs1)N1Cc2ccccc2C1=O)Nc1ccc(F)c(F)c1 (stereo not given)
Result: inactive

---

- run description: qHTS Screen for Compounds that Selectively Target Cancer Cells with p53 Mutations: Cytotoxicity of p53ts Cells at the Nonpermissive Temperature; also: nearly all actives have a fitted effect of over 55% in size
- protocol conditions: H1299-p53A138V viability at 39C, ATP luminescence, 24 h; series mostly up to 46.1 µM
Out of some 130,000 compounds screened, about 1,900 (1.5%) were called active. Another 5% or so got no clear call; they are omitted. Calls follow the shape of the dose curve; as a rule, active = well fitted cell-killing curve with a large enough effect; inconclusive = small, poorly fitted or top-dose-only effect; inactive = no such curve, though single readings can be large or run the other way. This excerpt belongs to a sample that is enriched for actives.
Classes to choose from: true = active, false = inactive

Reference set, count: 3
compound: O=C(Nc1cc(-c2nc3ccccc3o2)ccc1Cl)c1cc([N+](=O)[O-])ccc1N1CCOCC1
discrete label: false

compound: Cc1ccc(C)c(N2CCN(c3ccc4cc(S(=O)(=O)N5CCC(C)CC5)ccc4n3)CC2)c1
discrete label: false

compound: Cc1ccc(CNC(=O)CN2CCN(Cc3ccc(Cl)cc3)C2=O)cc1
discrete label: false

Request: Test call for this compound, please: CCCN(C(=O)Cn1cc(S(=O)(=O)N2CCN(c3ccccc3F)CC2)c2ccccc2c1=O)c1cccc(C)c1
Result: false

Request: # fetch the recorded call for CC(C)c1ccc(C2CC(=O)N3CN(C4CCCCC4)CSC3=C2C#N)cc1 (stereo not given) here
Result: false

Request: Per the records of this test, what outcome belongs to O=C(Cn1nnc(-c2ccccc2)n1)NCc1ccccc1 ?
Result: false

Request: // outcome(item) with item = CCN(C(=O)Cn1c(=O)nc(-c2ccccc2)c2cc(Cl)ccc21)c1cccc(C)c1
Result: true

---

- run description: qHTS Screen for Compounds that Selectively Target Cancer Cells with p53 Mutations: Cytotoxicity of p53ts Cells at the Nonpermissive Temperature; also: nearly all actives have a fitted effect of over 55% in size
- protocol conditions: H1299-p53A138V viability at 39C, ATP luminescence, 24 h; series mostly up to 46.1 µM
Out of some 130,000 compounds screened, about 1,900 (1.5%) were called active. Another 5% or so got no clear call; they are omitted. Calls come from the whole dose curve; as a rule, active = well fitted cell-killing curve with a large enough effect; inconclusive = small, poorly fitted or top-dose-only effect; inactive = no such curve, though single readings can be large or run the other way. Only a selection was taken, and actives are over-represented in it overall.
The reply should be one of these categories: 1 (yes) = active, 0 (no) = inactive

Examples with answers:
molecule: N#Cc1cccc(-c2ccc3ncnc(NCc4cccs4)c3c2)c1
discrete label: 1 (yes)
--
molecule: Cc1cccc(N2CCN(C(=O)c3ccc4c(c3)CCN4S(=O)(=O)c3ccccc3)CC2)c1C
discrete label: 0 (no)
--
molecule: COC(=O)c1sc2ncccc2c1-n1c(C)ccc1C
discrete label: 0 (no)
--
molecule: CCCc1[nH]nc2c1C(c1ccc(OC)c(Cn3nc(C)c(Br)c3C)c1)C(C#N)=C(N)O2 (stereo not given)
discrete label: 1 (yes)

Request: Please share the test call associated with CC(C)c1ccc(NC(=O)c2cc(S(=O)(=O)N3CCc4ccccc4C3)ccc2F)cc1 .
Result: 1 (yes)

Request: For COc1ccccc1CNc1ncnc2ccc(-c3ccc4c(c3)OCO4)cc12 , which call appears in the assay record?
Result: 0 (no)

Request: Returns: the outcome recorded for CC(=O)Nc1ccc(S(=O)(=O)N2CCN(C(=O)c3ccccc3F)CC2)cc1 in this assay.
Result: 0 (no)

Request: Please indicate how the test categorized COc1ccc(NS(=O)(=O)c2cc3c4c(c2)CC(=O)N4CCC3)cc1Cl .
Result: 0 (no)

Request: Hello, I am checking results. What call was entered for N#Cc1ccccc1-c1ccc2ncnc(NCc3cccnc3)c2c1 ?
Result: 0 (no)

Request: Can you look up the reported call for CCCc1[nH]nc2c1C(c1ccc(Br)s1)C(C#N)=C(N)O2 (stereo not given) for me?
Result: 0 (no)

---

- run description: qHTS Screen for Compounds that Selectively Target Cancer Cells with p53 Mutations: Cytotoxicity of p53ts Cells at the Nonpermissive Temperature; also: nearly all actives have a fitted effect of over 55% in size
- protocol conditions: H1299-p53A138V viability at 39C, ATP luminescence, 24 h; series mostly up to 46.1 µM
In all, about 130,000 compounds went through this assay and about 1,900 (1.5%) were called active. Another 5% or so got no clear call; they are omitted. The call rests on the fitted dose curve; in most records, active means well fitted cell-killing curve with a large enough effect; inconclusive means small, poorly fitted or top-dose-only effect; inactive means no such curve, though single readings can be large or run the other way. This excerpt belongs to a sample that is enriched for actives.
API: response.call in active, inactive

compound: COC(=O)c1ccc(-c2nc3cc(NC(C)=O)ccc3o2)cc1
discrete label: inactive

compound: CCOC(=O)c1cccc(NC(=O)c2cc(CN3CCCC3)on2)c1
discrete label: inactive

compound: CCOc1cccc(NC(=O)CSc2ncc(-c3ccc(Cl)cc3)[nH]2)c1
discrete label: active

compound: CCC(C)c1ccc2oc(-c3ccc(NC(=O)c4cc5ccccc5o4)cc3)nc2c1 (stereo unspecified)
discrete label: inactive

compound: COc1ccc(-c2cc(-c3nc(-c4cc(OC)c(OC)c(OC)c4)no3)[nH]n2)c(OC)c1
discrete label: inactive

compound: CC1(C)N=C(SCc2ccccc2Cl)c2ccccc2N1
discrete label: inactive

compound: COC(=O)c1sc(NC(=O)c2csc3c2CCCC3)nc1C
discrete label: inactive

compound: CCc1ccc2oc(-c3ccc(N)cc3)nc2c1
discrete label: active

compound: CCc1cnc2c(c1SCC(=O)c1ccccc1)c(=O)n(C)c(=O)n2C
discrete label: inactive

compound: CCN(CC)c1cc(NC2CCCCC2)c2c3c(onc13)-c1ccccc1C2=O
discrete label: inactive

Now let's try a different one.
Request: Hi, sorry to bother you, what did the test record for COc1ccc(-c2nc(-c3ccccc3)no2)c(OC)c1 ?
Result: active

---

- run description: qHTS Screen for Compounds that Selectively Target Cancer Cells with p53 Mutations: Cytotoxicity of p53ts Cells at the Nonpermissive Temperature; also: nearly all actives have a fitted effect of over 55% in size
- protocol conditions: H1299-p53A138V viability at 39C, ATP luminescence, 24 h; series mostly up to 46.1 µM
About 1,900 (1.5%) of roughly 130,000 compounds were called active. Another 5% or so got no clear call; they are omitted. Calls come from the whole dose curve; as a rule, active = well fitted cell-killing curve with a large enough effect; inconclusive = small, poorly fitted or top-dose-only effect; inactive = no such curve, though single readings can be large or run the other way. The full list was thinned out, with actives kept by preference.
Your reply should match one of these outcome classes. YES for active, NO for inactive

Illustrative cases are given below, each with its answer.
molecule: Cc1oc2ccc(O)c(CN3CCOCC3)c2c1C(=O)Nc1cccc(Cl)c1C
discrete label: NO
--
molecule: Clc1ccccc1CSc1nncn2c1cc1occc12
discrete label: NO
--
molecule: COc1ccc(Cn2c(C(=O)O)c(CNCCc3cccs3)c3ccc(OC)cc32)cc1
discrete label: NO

Request: Called result for Cc1oc2ccc(O)c(CN3CCC(C)CC3)c2c1C(=O)Nc1ccccc1
Result: NO

Request: // param item: COc1ccc(-c2noc(CSc3nnc(-c4ccccc4)n3-c3ccc(F)cc3)n2)c(OC)c1 ; yields the recorded call
Result: NO

Request: Just curious, what result did Cc1c(Cl)cccc1NC(=O)c1noc2c1CCCC2 get here?
Result: NO

Request: Please indicate how the test categorized O=C(Nc1cccnc1)c1ccc2c(c1)OCO2 .
Result: NO

Request: Short answer needed: outcome of this test for Cc1cccc(N2CCN(S(=O)(=O)c3ccc4[nH]c5c(c4c3)CCCCC5)CC2)c1C ?
Result: NO

Request: Look up the recorded call for Cn1c(-c2ccco2)nc2cc3ccccc3cc21 in this test.
Result: YES

Request: So what was the verdict on CCC1CCCCN1C(=O)Cn1c(=O)n(CCCCCC(=O)NCc2ccccc2)c(=O)c2sccc21 (stereo unspecified) in this test?
Result: NO

Request: What was the test verdict on c1coc(-c2nc3nc4ccccc4n3nc2-c2ccco2)c1 ?
Result: NO

src = PubChem BioAssay AID902
